Target: T1, human NTB-A (human, UniProt Q96DU3 22-332)
T1 construct: Endogenous NTB-A on antigen-positive Ramos cells (also on MM.1R, WIL2-S and Raji cells and normal human T and B lymphocytes); also called SLAMF6; human NTB-A isoform-1
T1 sequence: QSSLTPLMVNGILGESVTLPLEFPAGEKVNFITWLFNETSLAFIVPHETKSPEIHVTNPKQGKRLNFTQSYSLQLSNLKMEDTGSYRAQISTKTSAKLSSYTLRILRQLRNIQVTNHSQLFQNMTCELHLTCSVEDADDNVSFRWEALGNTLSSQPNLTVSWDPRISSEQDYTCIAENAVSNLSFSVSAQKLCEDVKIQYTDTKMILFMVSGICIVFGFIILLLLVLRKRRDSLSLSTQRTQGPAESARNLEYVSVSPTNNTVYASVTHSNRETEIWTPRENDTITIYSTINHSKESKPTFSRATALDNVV
Assay: competition flow cytometry on Ramos cells; competitor 5 nM mouse 20F3-Alexa Fluor 647
pEC50: −log10 of the molar value.

binder	pEC50
humanized 20F3 HALB (antibody, V domains shown, Humanized heavy chain HA paired with humanized light chain LB) VH: QVQLVQSGSELKKPGASVKVSCKASGYTFTNYGMNWVRQAPGQGLEWMGWINTYSGEPRYADDFKGRFVFSLDTSVSTAYLQISSLKAEDTAVYYCARDYGRWYFDVWGQGTTVTVSS VL: EIVLTQSPATLSLSPGERATLSCRASSSVSHMHWYQQKPGQAPRPWIYATSNLASGIPARFSGSGSGTDYTLTISSLEPEDFAVYYCQQWSSTPRTFGGGTKVEIKR	7.92
humanized 20F3 HDLD antibody (antibody, V domains shown, also called h20F3_HDLD; h20F3_HDLD-AF647) VH: QIQLVQSGSELKKPGASVKVSCKASGYTFTNYGMNWVRQAPGQDLKWMGWINTYSGEPRYADDFKGRFVFSLDKSVNTAYLQISSLKAEDTAVYYCARDYGRWYFDVWGQGTTVTVSS VL: QIVLSQSPATLSLSPGERATMSCRASSSVSHMHWYQQKPGQAPRPWIYATSNLASGVPARFSGSGSGTDYTLTISSLEPEDFAVYYCQQWSSTPRTFGGGTKVEIKR	8.52
humanized 20F3 HBLC (antibody, V domains shown, Humanized heavy chain HB paired with humanized light chain LC) VH: QIQLVQSGSELKKPGASVKVSCKASGYTFTNYGMNWVRQAPGQGLEWMGWINTYSGEPRYADDFKGRFVFSLDKSVSTAYLQISSLKAEDTAVYYCARDYGRWYFDVWGQGTTVTVSS VL: QIVLSQSPATLSLSPGERATLSCRASSSVSHMHWYQQKPGQAPRPWIYATSNLASGIPARFSGSGSGTDYTLTISSLEPEDFAVYYCQQWSSTPRTFGGGTKVEIKR	7.92
humanized 20F3 HALA (antibody, V domains shown, Humanized heavy chain HA paired with humanized light chain LA) VH: QVQLVQSGSELKKPGASVKVSCKASGYTFTNYGMNWVRQAPGQGLEWMGWINTYSGEPRYADDFKGRFVFSLDTSVSTAYLQISSLKAEDTAVYYCARDYGRWYFDVWGQGTTVTVSS VL: EIVLTQSPATLSLSPGERATLSCRASSSVSHMHWYQQKPGQAPRLLIYATSNLASGIPARFSGSGSGTDFTLTISSLEPEDFAVYYCQQWSSTPRTFGGGTKVEIKR	6.83
humanized 20F3 HCLB (antibody, V domains shown, Humanized heavy chain HC paired with humanized light chain LB) VH: QIQLVQSGSELKKPGASVKVSCKASGYTFTNYGMNWVRQAPGQDLEWMGWINTYSGEPRYADDFKGRFVFSLDKSVNTAYLQISSLKAEDTAVYYCARDYGRWYFDVWGQGTTVTVSS VL: EIVLTQSPATLSLSPGERATLSCRASSSVSHMHWYQQKPGQAPRPWIYATSNLASGIPARFSGSGSGTDYTLTISSLEPEDFAVYYCQQWSSTPRTFGGGTKVEIKR	8.30
